Catalogue of CC50 values
# PROTOCOL NOTES: Cytotoxicity against human Huh7.5 cells
# Assay type: cell-based
# CONDITION PARAMETERS: huh-7
READOUT NAME: CC50

MOLECULE	MEASUREMENT
COC(=O)C1=C(C(=O)OC)[C@@H]2N(CCCCCn3cc(CNC(C)=O)nn3)c3ccccc3[C@@]23CCC(=O)N(Cc2ccccc2)C3=N1 (racemic)	150 µM
COC(=O)C1=C(C(=O)OC)[C@@H]2N(CCOCCN3c4ccccc4[C@]45CCC(=O)N(Cc6ccccc6)C4=NC(C(=O)OC)=C(C(=O)OC)[C@H]35)c3ccccc3[C@@]23CCC(=O)N(Cc2ccccc2)C3=N1	> 100 µM
COC(=O)C1=C(C(=O)OC)[C@@H]2N(CCCN3c4ccccc4[C@]45CCC(=O)N(Cc6ccccc6)C4=NC(C(=O)OC)=C(C(=O)OC)[C@H]35)c3ccccc3[C@@]23CCC(=O)N(Cc2ccccc2)C3=N1	> 36 µM
COC(=O)C1=C(C(=O)OC)[C@@H]2N(CCCCCN3c4ccccc4[C@]45CCC(=O)N(Cc6ccccc6)C4=NC(C(=O)OC)=C(C(=O)OC)[C@H]35)c3ccccc3[C@@]23CCC(=O)N(Cc2ccccc2)C3=N1 (mixture of isomers)	> 36 µM
COC(=O)C1=C(C(=O)OC)[C@@H]2N(CCCCCn3cc(-c4ccc(OC)cc4C)nn3)c3ccccc3[C@@]23CCC(=O)N(Cc2ccccc2)C3=N1 (racemic)	> 100 µM
